Reported MIC values follow for various molecules
system: E. faecalis MMX 847; cErmB; assay: MIC (broth microdilution or agar dilution, CLSI); format: cell-based; settings: Enterococcus faecalis; E. faecalis MMX 847; cErmB; read-out: MIC
measured.attribute: MIC (µg/mL)

>>> readout_value("CS[C@H]1O[C@H]([C@H](NC(=O)[C@H]2NC[C@@H]3C[C@H](CC(C)C)CCO[C@H]32)[C@H](C)Sc2ccc(CN(C)C)cc2)[C@H](O)[C@H](O)[C@H]1O [FSA-09-04-092]")
1
>>> readout_value("CSC1O[C@H]([C@H](NC(=O)[C@H]2NC[C@@H]3C[C@@H](CC(C)C)CCO[C@H]32)[C@H](C)Cl)CC(O)[C@H]1O (some centres unmarked) [FSA-513018a]")
2
>>> readout_value("CSC1O[C@H]([C@H](NC(=O)[C@H]2NC[C@@H]3C[C@H](CC(C)C)CCO[C@H]32)[C@H](C)Cl)C(O)[C@@H](O)[C@H]1O (some centres unmarked) [FSA-513018b]")
1
>>> readout_value("CSC1O[C@H]([C@H](NC(=O)[C@@H]2[C@@H]3OCC[C@H](CC(C)C)C[C@H]3CN2C)[C@H](C)Cl)CC(O)[C@H]1O (some centres unmarked) [FSA-513003a]")
8
>>> readout_value("CSC1O[C@H]([C@H](NC(=O)[C@@H]2[C@@H]3OCC[C@@H](C4CCCC4)C[C@H]3CN2C)[C@H](C)Cl)CC(O)[C@H]1O (some centres unmarked) [FSA-513001b]")
16
>>> readout_value("C=CC[C@@H]1CCO[C@@H]2[C@H](CN[C@@H]2C(=O)N[C@H]([C@H](C)Cl)[C@H]2OC(SC)[C@H](O)[C@H](O)C2O)C1 (some centres unmarked) [FSA-10-09-045]")
8
>>> readout_value("CCC[C@@H]1CCO[C@@H]2[C@H](CN[C@@H]2C(=O)N[C@H]([C@H](C)Cl)[C@H]2OC(SC)[C@H](O)[C@H](O)C2O)C1 (some centres unmarked) [FSA-10-09-051]")
4
